pIC50: −log10 of the molar value.
Listed below are compounds with pIC50 for Coagulation factor XI (Homo sapiens), each taken from published literature.

Ask | I'm curious: which pIC50 was measured for `Cc1nc2nc(C(C)C)[nH]c2cc1-c1ccc(C[C@H](NC(=O)[C@H]2CC[C@H](CN)CC2)C(=O)Nc2ccc(-c3nnc(C(F)(F)C(F)(F)C(=O)O)[nH]3)cc2)cc1` tested on Coagulation factor XI (Homo sapiens)?
Reply | > 9.89

Ask | I'm curious: which pIC50 was measured for `CC(=O)Oc1cccc(-c2nc3ccccc3c(=O)n2Cc2cn(CCCCn3c(-c4cccc(OS(=O)(=O)O)c4)nc4ccccc4c3=O)nn2)c1` tested on Coagulation factor XI (Homo sapiens)?
Reply | < 3.00

Ask | I'm curious: which pIC50 was measured for `Nc1nc(-c2ccccn2)nn1C(=O)Cc1ccccc1I` tested on Coagulation factor XI (Homo sapiens)?
Reply | < 5.30

Ask | I'm curious: which pIC50 was measured for `Nc1nc(-c2ccccn2)nn1C(=O)c1ccccc1` tested on Coagulation factor XI (Homo sapiens)?
Reply | < 5.30
